test system: Klebsiella aerogenes; experiment: Antibacterial activity against Enterobacter aerogenes ATCC 13048 after 18 hrs by two fold serial dilution method; type: functional; settings: ATCC 13048, 18 h
MIC by entry:
Quick note: give the figure in µM, leave out the unit.

COMPOUND	MEASURE UNIT	MIC
CCOC(=O)N1CCN(CCCCCCCCN2C(=O)N(CC(=O)OC)C(=O)C2(c2ccccc2)c2ccccc2)CC1	µM	1250
CCOC(=O)N1CCN(CCCCN2C(=O)N(CC(=O)OC)C(=O)C2(c2ccccc2)c2ccccc2)CC1	µM	1250
CCOC(=O)N1CCN(CCCCCCN2C(=O)N(CC(=O)OC)C(=O)C2(c2ccccc2)c2ccccc2)CC1	µM	1250
NCCCCCCN1C(=O)N(CC(=O)O)C(=O)C1(c1ccccc1)c1ccccc1	µM	1250
O=C(O)CN1C(=O)N(CCCCCN2CCCN3CCCN=C23)C(c2ccccc2)(c2ccccc2)C1=O	µM	1250
NCCCCN1C(=O)N(CC(=O)O)C(=O)C1(c1ccccc1)c1ccccc1	µM	1250

What MIC value was documented for this compound, CCOC(=O)N1CCN(CCCCN2C(=O)N(CC(=O)O)C(=O)C2(c2ccccc2)c2ccccc2)CC1 ?
1250

What MIC value was documented for this compound, NCCCN1C(=O)N(CC(=O)O)C(=O)C1(c1ccccc1)c1ccccc1 ?
1250
